Reference for the values: the supplement of paper PMC9170038

tested on: MS2 coat protein; assay: apparent KD of MS2 coat protein; designed switch direction (-1 OFF switch, 1 ON switch): 1; higher = weaker reporter binding; details: input ligand: none
Recorded apparent KD of MS2 coat protein for the following sequences
reported.metric: apparent KD of MS2 coat protein (nM)

* CGGCGCUGUCGAGAGGAUAUGCGGUGAUGGACAUGAGGAUCACCCAUGUUAGCGAUAGCAUCACGGUAGAAGGCUCUUACGCCUG [Soteed Omei mod 23] (Eterna round: R96, puzzle: Same State 2) | 717
* AUUAUUAAUGCAGGAUAUGAUUAACAUGAGGAUCACCCAUGUGGUGUUGUGAGUAAGGAGAGUGAUCAGAAGGGCAUUUCUUUU [JMF's solution 11] (Eterna round: R96, puzzle: Same State NG 2) | 373
* AUUUUUAAUGCAGGAUAUGAUUAACAUGAGGAUCACCCAUGUGGUGUUGUGAGUAAGGAGAGUGAUCAGAAGGGCAUUUUGUUU [JMF's solution 83] (Eterna round: R96, puzzle: Same State NG 2) | 687

* * *

system: MS2 coat protein; experiment: apparent KD of MS2 coat protein; designed switch direction (-1 OFF switch, 1 ON switch): -1; higher = weaker reporter binding; conditions: input ligand: FMN 200 uM
Respond with Condition met for apparent KD of MS2 coat protein values of 50 nM and above, Condition not met for values below.

* AGCCACAGAGGAUAUACAUACAUCCAGUAGUAGAGUCUACUACAUGAGGAUCACCCAUGUAGAAGGCUGUGGCA [Omei Ex2 BD B16] (Eterna round: R97, puzzle: Exclusion 2) | Condition met
* AUAUUACAUGAGGAUCACCCAUGUGAGGAUAUGGAGCGCGACCGCCCGGUCGCGUACACCAGAAGGCGCGGGCG [1st #57] (Eterna round: R97, puzzle: Exclusion 1) | Condition not met
* GCAGCAACUCUAAUCAAAUCAACAUGAGGAUCACCCAUGUCUCAGGAUAUGGUCUGGAUUACAGGCCAGAAGGGAGAAAGCUGC [Eli exng3 - 048] (Eterna round: R96, puzzle: Exclusion NG 3) | Condition not met
* CAAGCUUUGCGAGGAUAUGAUGGCCUAUAUGCCUCAGAAGGCGCAGAUACUUGAGGAUCACCCAAGUGAUGCAAAUACGAAAAU [Mutated MS2 EX1.17] (Eterna round: R96, puzzle: Exclusion NG 1) | Condition met
* ACAUGAGGAUCACCCAUGUGACCAUGAUGGCUGAUGUAGAGCUAGGAUAUGAGUGAAUAUCUAUCUCAGAAGGAGCUUGACUGG [Deportation 48 - Jieux - Exclusion NG 3] (Eterna round: R96, puzzle: Exclusion NG 3) | Condition not met

* * *

test system: MS2 coat protein; experiment: apparent KD of MS2 coat protein; designed switch direction (-1 OFF switch, 1 ON switch): 1; higher = weaker reporter binding; conditions: input ligand: FMN 200 uM
reported.metric: apparent KD of MS2 coat protein (nM)

• UGGUACAUGGGAGGAUAUCCUAUGGUGACAUGAGGAUCACCCAUGUAAUUGGAGCCGAAAGGCAUGGAGAAGGCCCAUGUACCU [JL SSNG1 3.78] (Eterna round: R96, puzzle: Same State NG 2) = 40.2
• AAAAAAAAGUCAGGAUAUGAAUGGAAAGUACAUGAGGAUCACCCAUGUUAUGGAAAAAAAAAACGUUAGAAGGGAUAAAAAAAA [AK SSNG2-V2-1] (Eterna round: R96, puzzle: Same State NG 2) = 61.3
• AGAGGAGGCGCAGGAUAUACGACGGAGGACGUGGUAGAAGGGUGCAUGCGAUGACAUGAGGAUCACCCAUGUACCGCGCGACGA [AK SSNG1-V2-16] (Eterna round: R96, puzzle: Same State NG 1) = 337
• CGUCCAGCCUGAGCUGGACAAAAGCAUGUACAUGAGGAUCACCCAUGUUCAUGUACAAGCUUUUUGCUCGUCUUAGC [salish99_208a_r3_075] (Eterna round: R96, puzzle: Sensor for hsa-mir-208a) = 598
• GCCAACGCAUGAGGAUAUGGCACCUUAUUGGUGCCAGAAGGCAUGUCUAUUGACAUGAGGAUCACCCAUGUAUUAUAGUUGGCA [Fiskers NG1ss - 15] (Eterna round: R96, puzzle: Same State NG 1) = 114

* * *

Recorded apparent KD of K4 kissing-loop reporter for the following sequences
tested on: K4 kissing-loop RNA reporter; experiment: apparent KD of K4 kissing-loop reporter; higher = weaker reporter binding; conditions: Eterna round: R107; input ligand: theophylline 20 uM
reported.metric: apparent KD of K4 kissing-loop reporter (nM)

- GGGAGAAGUGGUGUUGAUUAAGAAGCGGAAGGAGCGCCGAAGAAGGCAGGUAGGUCGCCGAAAUAUAGUGAUGUUAUAUAAAGGG [ExArg.B]: 218
- UUAUUAUUCAGUGAUGUUGAAUUUAUUUCAGAGGAUAUGCAUAAAUGCAGAAGGCUGUAAUACUAUACUUUAAUAAAUUAAAUUU [JR_SSFMNA_Sub018]: 262
- UGACAUUGCUCAGAUACCAGACCUGAGGAUCACCCUGGUGCCAAACGUACAAUAAUAAAUGUCCCUUGGCAGCUGAGCAAUGUCU [TheoBX 14]: 139

* * *

Recorded apparent KD of K4 kissing-loop reporter for the following sequences
system: K4 kissing-loop RNA reporter; test: apparent KD of K4 kissing-loop reporter; higher = weaker reporter binding; conditions: Eterna round: R107; input ligand: arginine 13.2 mM
reported.metric: apparent KD of K4 kissing-loop reporter (nM)

* AAUAAUAAUAAAUAUAGAUUGAUGAGGAAACGAGGACCGGUACGGCCGCCACUCGAGUGAUGUUCGAGAACCUCAUCAAUCAUAA [AK4.7 Exc Tryptophan A] | 132
* UCGAAAUGCGUCUCCUAGUUUCUCCGGGAAGGAGCGUGGAUAACCGCAGGUAGGUCGCCCGGGAGCCGGACCAGUGAUGUUGGUC [Exclusion Arginine A Gf 30] | 211
* UCCUAGGCUCGAAAGAGCCUAGGAUUGACUCAGGAUAUCCGGAAACGGAGAAGGGAGUCACUAGUGAUGUUAGGGAUUCCCUAUU | 91.2
* CUAUAAGUGCCGAGUGAUGUUCGGCCAAUACGAGGACCGGUACGGCCGCCACUCGGUCAGUGAGUGCCCACCGGGCGUGGCUGAC [Leedgeis] | 225
* CCCAAAAUAUGCAGUGAUGUUGCAACCGAUACCAGUAUCGAAAGAUACCCUUGGCAGCGGAAAACCGCAACGUAAUUUAAAAGGG [Ex Theophylline A K4 16] | 177
* CACCAUGAAUUCUCUAGGAGUGAUGUUUUUCGAGGACCGGUACGGCCGCCACUCGGACGAGGAACGUGGGAGCGGCGAAAAGACU [xzzmullin] | 64

* * *

tested on: K4 kissing-loop RNA reporter; test: apparent KD of K4 kissing-loop reporter; higher = weaker reporter binding; details: Eterna round: R107; input ligand: arginine 13.2 mM;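 note: bound reporter read as fluorescence of individual clusters on recovered sequencing chips by microscopy, with normalized cluster intensities fitted with a binding model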
reported.metric: apparent KD of K4 kissing-loop reporter (nM)

- ACGCUGGUGAAUAACACUAGCGAAAAUUCGCGAGGACCGGUACGGCCGCCACUCGCUAACUGCGAGUGAUGUUCGAUAAUAAAAU [Mat - Mod of OpenEnded 3 - D8]: 67.5
- UUCUGCAUCUCGGCCGCCACUCACUAGUGAUGUUAGUAAGGAGCGACUAGAAAAGUCCAGUUAAUGAGGACCGGGAGAAGCUCUU [Exclusion Tryptophan B GF 1]: 298
- AAAUAAAGCAGUCAGCCAGUGAUGUUGGAAGGAGCGUGCGAAAGCACAGGUAGGUCGCCAAAACCUAAUACUGGCUGCUAAAUAA [#SwitchBubble 1 #K4Early]: 643
- CACCAUGAAUUCUCUAGGAGUGAUGUUUUUCGAGGACCGGUACGGCCGCCACUCGGACGAGGACCGUGGGAGCGGCGAAGCGACU [wwegmullin]: 148
- CGUGAGGACCUGAGGUGAUGUAUAGUAUCGCGAGGACCGGUACGGCCGCCACUCGUGAAGAGAAAGGAGUGAUGUUCCGUAAGGG: 470
- UUUGGAUUGCACUAAGAGCGCAAGCGCCAACGAGGACCGGUACGGCCGCCACUCGCGGAGGAGUCCAGUGAUGUUGGACGGCCCG [Onenusan]: 359
- CUGAGCUGCAGCGAUACCAGUGUGGAGUGAUGUUCCCUGGUCCGGGCUGUUGUUCCCUUGCGCCCUUGGCAGCGCAGGAGCAGGG [Exclusion Theophylline B GF 15]: 352
- AAUUUAUGAUCUGAUACCAGACUUUAUCUUGUUUAUAAGUCAAGUGAUGUUUGACUAUUAGUCCCUUGGCAGCAGUAUUGUUUAA [#17 K4 Theophylline B Same State]: 268
- AUUAAUUUCAGAGGAUAUGCUUUAUUAUUAUUUUUAAAUAAUAAAUGCAGUGAUGUUGCUUAUUAUGCAGAAGGCUGAUUUAUAA [JR_SSFMNB_Sub014]: 625
- GCUAGGCAUGCAGGAUAUCGUGGAGUGAUGUUCCGUUGGCUGCUAGCGGAAAACGCUAGCAGCCUACGAGAAGGGCAUGCCUAGC: 356
- UAAGAAUAACAUGCAGUGAUGUUGCAUGUACGAGGACCGGUACGGCCGCCACUCGAGUCCUCGAACAUGCACCGAGGAAUAACAA [(H,1)-(H,2)-(Trp1)-(Trp2)-(T)'-(H)'-(T)'']: 118
- AUUCGUUUAUGUGAUACCAGACUUUGCAGUGAUGUUGCAUUAAUUUUUGAUUAUUAGUUUGUCCCUUGGCAGCACUAUUUAUUUA [JR_SSTheophyB_Sub004]: 81.5
- GGAUAGGAUAGAGGAUAUGGUUUAUGCAAGAAUAACUUAUCGUGUAAAUCCAUAGGGAGUGAUGUUCCAGAAGGCUGUCCUAUCG [MatMod 12 - Jieux - Exclusion - FMN B]: 201
- GGGAGAAGUGGUGUUGAUUAAGAAGCGGAAGGAGCGCCGAAGAAGGCAGGUAGGUCGCCGAAAUAUAGUGAUGUUAUAUAAAGGG [ExArg.B]: 184
- UGGACCUGACUCGAUAAGAGUCAAUGAGAUACCAGUGACGAAAGUCACCCUUGGCAGCUCAACUGCCAGUGAUGUUGGUGGUCCU [#SwitchBubble 2 #StaticStem]: 389
- UUUAUGAUGUCGGCCGCCACUGGAUUAAUAUGUGUGUAAUCUAGUUCUGAGUGAUGUUUAGAGUCCAGGACCGGGACAUUAGUUA [#12 K4 Tryptophan B Exclusion]: 476
- AGAGAUAUAUGAGGAUAUGAGAUAGUUAAUGAGUGAGUUAUAGUGUUGUUUGGUUAGUGAUGUUAUUUAGAAGGCGUGAGUGAUG [immumullin]: 94.7
- AUUUUGGUUUAGAGUGAUGUUCCUUGUAUUCGAGGACCGGUACGGCCGCCACUCGGGUAGAAAAGAAAAGAAAUGUUUGAUUUUU [BDazzled - #9 SS Tryptophan A]: 102
- AGUGGAACUUGCAGGUAUCCACAACUGGAUACCAGCUCGGAAACGAGCCCUUGGCAGCCAGAUCUUGCAGUGAUGUUGCAAGUUC [Design10]: 323
- UAGUCCUAGUGAUCCUUAUCAAGUGGUGGGCGAGGACCGGUACGGCCGCCACUCGAAUAUGCAGUGAUGUUGUAAUCCGGAUAAU [Exclusion - Tryptophan A (Freestyle 10)]: 511
- UGGAGUUGACGAAAAGUCAACUCCUGAGAAGGAGCGGACGAAAGUCCAGGUAGGUCGCUCACUACCAGUGAUGUUGGUACUGAAA: 228
- CCGGCCCGGCCGGAUACCAGUGCGCCGCUGUGAACUGCGGGCCCAGAGUGAUGUUCGGGACACCCUUGGCAGCCGCCUGGGUCGC [#2 Same State - Theophylline B Attempt #26 (HarryS)]: 380
- CGGUUAUAGCAGGAUACCAGUACCCAUUAUGUACGUUUAUAGUAGAGUGAUGUUCUAAAGUACCCUUGGCAGCUUCCCGUGACCC [#23 K4 Theophylline B Exclusion]: 199
